So I've got a bunch of compounds here, and I need their pEC50 values.
target: recombinant DYRK1A kinase (Homo sapiens (Human)); assay: DYRK1A kinase assay (Ser/Thr 18 peptide Z-lyte FRET); conditions: 30 μM ATP, 1 h room temperature;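 also: Read-out is the coumarin to fluorescein emission ratio, referenced to unphosphorylated (0%) and phosphorylated (100%) Ser/Thr 18 peptide controls, values from dose-response curves by non-linear regression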
As a rule, pEC50 stands for the negative log10 of the concentration, concentration in M.

# input compound: `CC(C)CN1CCC(F)(C(=O)Nc2cc3cc(-n4ccnn4)ccc3cn2)CC1` ; wanted: its pEC50
8.16

Check `Cn1cc(-c2ccc3cnc(NC(=O)C4CC4)cc3c2)cn1` too.
8.40

One more compound: `Cn1ncc(-c2ccc3cnc(NC(=O)C4CC5(C4)CN(C(=O)OC(C)(C)C)C5)cc3c2)c1CN1CCCCC1`
7.60

Every entry's value here was drawn from patent US10287267B2.
